tested on: HEK-293T; test: Multiplex assay against HEK293T; format: toxicity, cell-based; conditions: human, 12 h, 1 µM, compound concentration 1 uM, replicate 2
assay endpoint: Population Healthy Nuclei (%)

• CN1CCN(c2nc3cc(C(F)(F)F)ccc3n3cccc23)CC1.O=C(O)/C=C\C(=O)O.O=C(O)/C=C\C(=O)O = 77
• CC[C@H]1OC(=O)[C@H](C)[C@@H](O[C@H]2C[C@@](C)(OC)[C@@H](O)[C@H](C)O2)[C@H](C)[C@@H](O[C@@H]2O[C@H](C)C[C@H](N(C)C)[C@H]2O)[C@@]2(C)CC(C)=C(O2)[C@H](C)[C@@H](O)[C@]1(C)O = 84
• COc1cc(NC(=O)CCN2CCC(OC(=O)Nc3ccccc3-c3ccccc3)CC2)c(Cl)cc1CNC[C@H](O)c1ccc(O)c2[nH]c(=O)ccc12 = 78
• C[C@@H]1C[C@H]2[C@@H]3CCC4=CC(=O)C=C[C@]4(C)[C@@]3(F)[C@@H](O)C[C@]2(C)[C@@]1(O)C(=O)CO = 80
• C[C@H]1[C@H]2CC[C@H]3[C@@H]4CC=C5C[C@@H](N(C)C)CC[C@]5(C)[C@H]4CC[C@]23CN1C = 85
• CN(C)CCCc1cc(C(=O)Nc2ccc(-c3ccncc3)cc2)ccc1O.Cl.Cl = 82

* * *

Catalogue of molecules with associated Population Membrane Permeable-Phenotype (%)
system: HEK-293T; assay: Multiplex assay against HEK293T; type: toxicity, cell-based; conditions: human, 24 h, 1 µM, compound concentration 1 uM, replicate 1
assay endpoint: Population Membrane Permeable-Phenotype (%)

- CC1(COc2ccc3c(c2)ncn3-c2ccc3cccc(N4CCC(N)CC4)c3n2)COC1 [CRENOLANIB]: 2%
- C[C@H]1[C@H]2CC[C@H]3[C@@H]4CC=C5C[C@@H](N(C)C)CC[C@]5(C)[C@H]4CC[C@]23CN1C [CONESSINE]: 1%
- Cl.Clc1ccc2nsnc2c1NC1=NCCN1 [TIZANIDINE HYDROCHLORIDE]: 0%
- Cc1ccc(C(C)(O)c2nc3ccccc3s2)c(C)c1 (centres undefined): 1%
- O=S(=O)(c1ccccc1)c1cnc2c(N3CCNCC3)cccc2c1 [INTEPIRDINE]: 0%
- CN1CCN2c3ncccc3Cc3ccccc3C2C1 (centres undefined) [MIRTAZAPINE]: 0%
- N#Cc1c(N)nc(SCc2csc(-c3ccc(Cl)cc3)n2)c(C#N)c1-c1ccc(OCCO)cc1 [CAPADENOSON]: 2%
- C[C@@H]1C[C@H]2[C@@H]3CCC4=CC(=O)C=C[C@]4(C)[C@@]3(F)[C@@H](O)C[C@]2(C)[C@@]1(O)C(=O)CO [DEXAMETHASONE]: 0%
- CCCC(CCC)C(=O)O [VALPROIC ACID]: 1%
- N[C@@]1(C(=O)O)CO[C@H]2[C@H](C(=O)O)[C@H]21 [LY-379268]: 0%
- Oc1c(CN2CCN(c3ccccn3)CC2)cc(Cl)c2cccnc12: 0%
- Cc1ccc(F)cc1C(=O)Nc1ccc(C(=O)N2Cc3cccn3Cc3ccccc32)c(Cl)c1 [LIXIVAPTAN]: 0%
- CC[C@H]1OC(=O)[C@H](C)[C@@H](O[C@H]2C[C@@](C)(OC)[C@@H](O)[C@H](C)O2)[C@H](C)[C@@H](O[C@@H]2O[C@H](C)C[C@H](N(C)C)[C@H]2O)[C@@]2(C)CC(C)=C(O2)[C@H](C)[C@@H](O)[C@]1(C)O: 0%
- Cc1ccccc1C(=O)Nc1ccc(C(=O)N2CCCC(N(C)C)c3ccccc32)cc1.Cl (centres undefined): 0%

* * *

system: HEK-293T; test: Multiplex assay against HEK293T; type: toxicity, cell-based; conditions: human, 24 h, 1 µM, compound concentration 1 uM, replicate 2
In this section, each of the compounds is paired with its reported Population Mitotic Cells (%).
assay endpoint: Population Mitotic Cells (%)

- CCNC1(C(N)=O)CCN(c2ncnc3c2nc(-c2ccccc2Cl)n3-c2ccc(Cl)cc2)CC1 [OTENABANT]: 59%
- O=C(O)c1cc2ccccc2c(Cc2c(O)c(C(=O)O)cc3ccccc23)c1O [PAMOIC ACID]: 59%
- CC(=O)NCCc1c(Cc2ccccc2)[nH]c2ccccc12 [LUZINDOLE]: 60%

* * *

test system: U2OS; assay: Multiplex assay against U2OS; format: toxicity, cell-based; details: human, 48 h, 10 µM, compound concentration 10 uM, replicate 2
assay endpoint: Population Fragmented Nuclei (%)

- C[C@H](NC(=O)c1c(C(F)F)nn(C)c1Oc1cccc(C(F)(F)F)c1)c1ccc(C(=O)O)cc1: 14
- C[C@@H]1C[C@H]2[C@@H]3CCC4=CC(=O)C=C[C@]4(C)[C@@]3(F)[C@@H](O)C[C@]2(C)[C@@]1(O)C(=O)CO: 16
- Cc1ccc(C(C)(O)c2nc3ccccc3s2)c(C)c1 (centres undefined): 11
- COc1cc(NC(=O)CCN2CCC(OC(=O)Nc3ccccc3-c3ccccc3)CC2)c(Cl)cc1CNC[C@H](O)c1ccc(O)c2[nH]c(=O)ccc12: 29
- O=C(NCC(=O)N1CC[C@H](N[C@H]2CC[C@@](O)(c3ccc(-c4ncccn4)cn3)CC2)C1)c1cccc(C(F)(F)F)c1: 20
- Cc1ccc(F)cc1C(=O)Nc1ccc(C(=O)N2Cc3cccn3Cc3ccccc32)c(Cl)c1: 18
- CC(=O)NCCc1c(Cc2ccccc2)[nH]c2ccccc12: 11
- CCOc1c2c(c(OCC)c3ncccc13)CN(c1ccc(CS(=O)(=O)NC(=O)Cc3ccccc3OC)cc1C)C2=O: 18
- CC(C)(C)c1ccc(S(=O)(=O)Nc2ccc(Cl)cc2C(=O)c2cc[n+]([O-])cc2)cc1: 26
- O=C(O)Cc1ccccc1Nc1c(Cl)cccc1Cl: 12
- CCCN1CCC[C@@H]2Cc3n[nH]cc3C[C@H]21.Cl [QUINPIROLE HYDROCHLORIDE]: 12
- CC1(COc2ccc3c(c2)ncn3-c2ccc3cccc(N4CCC(N)CC4)c3n2)COC1: 57
- N[C@@]1(C(=O)O)CO[C@H]2[C@H](C(=O)O)[C@H]21: 11
- O=S(=O)(c1ccccc1)c1cnc2c(N3CCNCC3)cccc2c1 [INTEPIRDINE]: 13

* * *

tested on: HEK-293T; experiment: Multiplex assay against HEK293T; format: toxicity, cell-based; details: human, 24 h, 10 µM, compound concentration 10 uM, replicate 1
Each record's class is read off its Population Hoechst High Intensity Objects (%) using these ranges: zone 1 = under 5%, zone 2 = from 5% up to 8%, zone 3 = 8% and over

• CC1(COc2ccc3c(c2)ncn3-c2ccc3cccc(N4CCC(N)CC4)c3n2)COC1 = zone 3
• C[C@@H]1C[C@H]2[C@@H]3CCC4=CC(=O)C=C[C@]4(C)[C@@]3(F)[C@@H](O)C[C@]2(C)[C@@]1(O)C(=O)CO = zone 2
• O=C(NCCO)c1cccc(-c2cc(Nc3ccc(OC(F)(F)F)cc3)ncn2)c1 = zone 2
• CCCC(CCC)C(=O)O = zone 1
• O=C(NCC(=O)N1CC[C@H](N[C@H]2CC[C@@](O)(c3ccc(-c4ncccn4)cn3)CC2)C1)c1cccc(C(F)(F)F)c1 = zone 2
• N[C@@]1(C(=O)O)CO[C@H]2[C@H](C(=O)O)[C@H]21 = zone 2
• N#Cc1c(N)nc(SCc2csc(-c3ccc(Cl)cc3)n2)c(C#N)c1-c1ccc(OCCO)cc1 = zone 3
• Cc1nc2ccc(Oc3ccc(F)cc3)cc2c(=O)n1C[C@H]1CCCN(C(C)C)C1.Cl = zone 3
• CC(C)(C)c1ccc(S(=O)(=O)Nc2ccc(Cl)cc2C(=O)c2cc[n+]([O-])cc2)cc1 = zone 1
• CCCN1CCC[C@@H]2Cc3n[nH]cc3C[C@H]21.Cl [QUINPIROLE HYDROCHLORIDE] = zone 1
• COc1ccc2c(c1)C(C(=O)N(Cc1ccc(N(C)C)cc1)c1ccc(C(C)C)cc1)CCC2.Cl (stereo unspecified) = zone 3
• CN1CCN2c3ncccc3Cc3ccccc3C2C1 (stereo unspecified) = zone 1
• CCCn1c(=O)c2[nH]c(C3CCCC3)nc2n(CCC)c1=O = zone 1
• O=S(=O)(c1ccccc1)c1cnc2c(N3CCNCC3)cccc2c1 [INTEPIRDINE] = zone 2
• CC(=O)NCCc1c(Cc2ccccc2)[nH]c2ccccc12 = zone 3
• CCOc1c2c(c(OCC)c3ncccc13)CN(c1ccc(CS(=O)(=O)NC(=O)Cc3ccccc3OC)cc1C)C2=O = zone 1

* * *

Reported Population Mitotic Cells (%) values for the following compounds.
test system: HEK-293T; assay: Multiplex assay against HEK293T; assay type: toxicity, cell-based; settings: human, 48 h, 10 µM, compound concentration 10 uM, replicate 2
assay endpoint: Population Mitotic Cells (%)

- COc1cc(C(=O)N(CCCc2ccccc2)Cc2ccc(CC(=O)O)cc2)cc(OC)c1C: 66
- O=S(=O)(c1ccccc1)c1cnc2c(N3CCNCC3)cccc2c1 [INTEPIRDINE]: 81
- Cc1ccccc1C(=O)Nc1ccc(C(=O)N2CCCC(N(C)C)c3ccccc32)cc1.Cl (configuration not stated): 36
- CSCC[C@H](NC=O)C(=O)N[C@@H](CC(C)C)C(=O)N[C@@H](Cc1ccccc1)C(=O)O: 63
- CCCC(CCC)C(=O)O [VALPROIC ACID]: 72
- COc1cc(NC(=O)CCN2CCC(OC(=O)Nc3ccccc3-c3ccccc3)CC2)c(Cl)cc1CNC[C@H](O)c1ccc(O)c2[nH]c(=O)ccc12 [BATEFENTEROL]: 42
- CC[C@H]1OC(=O)[C@H](C)[C@@H](O[C@H]2C[C@@](C)(OC)[C@@H](O)[C@H](C)O2)[C@H](C)[C@@H](O[C@@H]2O[C@H](C)C[C@H](N(C)C)[C@H]2O)[C@@]2(C)CC(C)=C(O2)[C@H](C)[C@@H](O)[C@]1(C)O: 46
